Data credit: paper PMC9723616

Biological target: T1, FemX (UniProt Q9EY50 1-336)
T1 sequence: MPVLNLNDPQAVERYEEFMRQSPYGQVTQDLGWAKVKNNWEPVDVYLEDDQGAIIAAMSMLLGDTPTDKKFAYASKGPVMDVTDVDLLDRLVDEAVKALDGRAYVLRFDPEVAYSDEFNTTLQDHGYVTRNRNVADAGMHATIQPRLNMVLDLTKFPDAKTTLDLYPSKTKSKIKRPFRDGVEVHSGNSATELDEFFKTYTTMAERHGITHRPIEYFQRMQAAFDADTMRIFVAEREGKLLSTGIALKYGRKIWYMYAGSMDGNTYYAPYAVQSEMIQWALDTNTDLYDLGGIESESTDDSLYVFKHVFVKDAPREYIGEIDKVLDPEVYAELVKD
Assay: competition
The entries below come with measured Ki values attached.
Record the value in nM, omitting the unit from your answer.

GGGGCCUUAGCUCAGGCUCCACCA (XNA, 2'F-ANA in stem (14 F); dC at penultimate position (pdCpA); 2'-azido-2'-deoxy A76 joined by triazole to UDP-MurNAc-pentapeptide) [compound 20 (2'F-ANA stem peptidyl-helix, 24 nt)]; 221

Query block: # query: Ki of entry GGGGCCUUAGCUCAGGCUCCACCA (XNA, 2'F-RNA in stem (14 F); dC at penultimate position (pdCpA); 2'-azido-2'-deoxy A76 joined by triazole to UDP-MurNAc-pentapeptide) [compound 17 (2'F-RNA stem peptidyl-helix, 24 nt)]
Result block: 0.397
